Target: T1, monomeric human CTLA-4 (human, UniProt P16410 36-161, limits assumed)
T1 construct: Soluble monomeric analyte in SPR; also called huCTLA-4
T1 sequence: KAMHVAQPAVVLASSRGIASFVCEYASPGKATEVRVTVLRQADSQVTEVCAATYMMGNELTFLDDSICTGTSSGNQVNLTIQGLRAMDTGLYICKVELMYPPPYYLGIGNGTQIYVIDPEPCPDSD
Experiment: SPR, captured Fab, pH 6.0

BINDER	t1/2 / s
ipi.90 Fab (Fab, V domains shown, Tested as monovalent Fab) VH: QVQLVESGGGVVQPGRSLRLSCAASGFTFSHYTMHWVRQAPGKGLEWVTFISYDGNNKYYADSVKGRFTISRDNSKNTLYLQMNSLRAEDTAIYYCARHGWLGPFDYWGQGTLVTVSS VL: EIVLTQSPGTLSLSPGERATLSCRASQEVGDSELAWYQQKPGQAPRLLIYGAFSRATGIPDRFSGSGSGTDFTLTISRLEPEDFAVYYCQQYGSSPWTFGQGTKVEIKR	10
